- measured_on: Aurora kinase A (AURKA) (Homo sapiens, UniProt O14965)
- Construct: endogenous in cells; host or cells: HeLa LgBit (AURKA-HiBit KI), CRISPR/Cas9 knock-in at the endogenous AURKA locus
- Sequence (O14965 1-403): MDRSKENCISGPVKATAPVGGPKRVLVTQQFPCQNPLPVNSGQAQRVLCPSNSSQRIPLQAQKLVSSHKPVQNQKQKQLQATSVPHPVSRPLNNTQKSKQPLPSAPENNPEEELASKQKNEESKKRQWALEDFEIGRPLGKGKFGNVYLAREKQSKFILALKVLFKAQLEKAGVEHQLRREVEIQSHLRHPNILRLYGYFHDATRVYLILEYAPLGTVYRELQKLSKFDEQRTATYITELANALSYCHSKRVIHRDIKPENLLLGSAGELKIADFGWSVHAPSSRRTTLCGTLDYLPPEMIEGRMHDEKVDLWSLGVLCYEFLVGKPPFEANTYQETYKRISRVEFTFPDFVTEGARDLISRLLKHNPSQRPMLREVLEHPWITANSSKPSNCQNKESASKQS
- assay_remarks: Luciferase assay for AURKA in HeLa LgBit (AURKA-HiBit KI) cell line
- Assay type: cell-based
- conditions_used: 10 nM compound, HeLa LgBit (AURKA-HiBit KI) cells, measured after 12 hours
value_type: luminescence value (Level)

compound	value_observed
O=C1CCC(Nc2ccc(N3CCC(CN4CCN(C(=O)Cc5ccc(Nc6ncc(F)c(Nc7ccc(C(=O)Nc8ccccc8Cl)cc7)n6)cc5)CC4)CC3)cc2)C(=O)N1 (centres unmarked)	B (B is 0.3 to 0.5)
O=C1CCC(NC(=O)c2ccc(N3CCC(CN4CCN(C(=O)Cc5ccc(Nc6ncc(F)c(Nc7ccc(C(=O)Nc8ccccc8Cl)cc7)n6)cc5)CC4)CC3)cc2)C(=O)N1 (centres unmarked)	C (C is 0.5 to 0.7)
O=C1CCC(c2ccc(N3CCC(CCN4CCC(NC(=O)c5ccc(Nc6ncc(F)c(Nc7ccc(C(=O)Nc8ccccc8Cl)cc7)n6)cc5)CC4)CC3)cc2)C(=O)N1 (centres unmarked)	C (C is 0.5 to 0.7)
CC(CN1CCN(c2ccc(C3CCC(=O)NC3=O)cc2)CC1)N1CCC(NC(=O)c2ccc(Nc3ncc(F)c(Nc4ccc(C(=O)Nc5ccccc5Cl)cc4)n3)cc2)CC1 (centres unmarked)	B (B is 0.3 to 0.5)
